# assaySummary: Half life for the hydrolysis of compound in human blood serum
# Type: ADME, cell-free, Plasma
readoutKind: half-life (min)
One number for each entry, in min.

• CCOP(=O)(OCC1C=CC(n2cc(C)c(=O)[nH]c2=O)O1)C(N)=O (stereo not drawn) = 21

Now consider the entry below.
Fill blank: measured half-life of the molecule CCOP(=O)(OCC1OC(n2cc(C)c(=O)[nH]c2=O)CC1N=[N+]=[N-])C(N)=O (stereo not drawn) is ____.
7

----------
# assaySummary: Half life for hydrolysis of compound in phosphate buffer of pH 7.2 at 20 degree C
# Format: ADME
readoutKind: half-life

Consider the reported half-life for these compounds:
- CCOP(=O)(CC(N)=O)OCC1C=CC(n2cc(C)c(=O)[nH]c2=O)O1 (stereo not drawn): > 24 h
- CCOP(=O)(CC(N)=O)OCC1OC(n2cc(C)c(=O)[nH]c2=O)CC1N=[N+]=[N-] (stereo not drawn): > 20 h

Consider the record given below.
Any idea what half-life was measured for CCOP(=O)(OCC1OC(n2cc(C)c(=O)[nH]c2=O)CC1N=[N+]=[N-])C(=O)NC (stereo not drawn) ?
6 h
